# experiment notes: Cytotoxicity against human HL60 cells after 48 hrs by MTT assay
# Type: functional, cell-based
# assay context: HL-60, 48 h
parameter measured: IC50 (µM)

* C=C1Cc2c(Cl)cc3[nH]c4c5c3c2[C@H]2[C@@H]1C[C@@H]2C(C)(C)O[C@H]5[C@@H]1CC[C@@]2(O)C3=C[C@@H](O)[C@@H](C(=C)C)O[C@H]3CC[C@]2(C)[C@@]41C [PENITREM C] | 4.7
* C=C(C)[C@H]1O[C@H]2CC[C@@]3(C)[C@@](O)(CC[C@]4(O)O[C@@H]5OC(C)(C)[C@H]6C[C@@H]7C(=C)Cc8c(Cl)cc9[nH]c(c5c9c8[C@@]76O)[C@]34C)[C@]23O[C@@H]3[C@H]1O | 9.6
